The measured values listed here are drawn from a collection of fitness landscapes (doi:10.1016/j.celrep.2020.107928).

B1: Caulobacter ParB omega fusion; a variant is named by its letters at X, in order, B8GW30 (parent)
chain: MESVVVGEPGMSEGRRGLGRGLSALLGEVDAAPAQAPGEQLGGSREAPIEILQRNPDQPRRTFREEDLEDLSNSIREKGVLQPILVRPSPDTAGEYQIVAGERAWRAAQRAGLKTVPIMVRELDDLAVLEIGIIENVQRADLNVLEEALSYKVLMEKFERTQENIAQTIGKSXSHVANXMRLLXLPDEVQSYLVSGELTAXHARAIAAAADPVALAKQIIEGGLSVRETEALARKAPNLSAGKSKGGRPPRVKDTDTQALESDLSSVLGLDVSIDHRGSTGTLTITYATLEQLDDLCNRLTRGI

# Variants of: B1
# EXPERIMENTAL_DETAILS: one-hybrid fitness for binding NBS DNA (the Noc-binding site; scaled: cognate 1, non-cognate 0); higher = stronger binding
# EXPERIMENTAL_SETUP: with NBS DNA site
In all, about 81,000 sequences were measured (“one-hybrid fitness for binding NBS DNA”: median about -0.1, highest 2% from about 0.36 on). The entries come from a sample that favours the highest values as a whole.
MEASURED_METRIC: one-hybrid fitness for binding NBS DNA

Below: 6 variants and their reported one-hybrid fitness for binding NBS DNA.
RTLP = ≤ 0.2
QQGL = ≤ 0.2
QVNT = 0.44
QVHS = 0.296
PANE = ≤ 0.2
RCVT = 0.319

(Q) Give one-hybrid fitness for binding NBS DNA for the following variant: QVRT
(A) 0.56

(Q) Give one-hybrid fitness for binding NBS DNA for the following variant: RTLY
(A) ≤ 0.2

(Q) Give one-hybrid fitness for binding NBS DNA for the following variant: VVYR
(A) ≤ 0.2

(Q) Give one-hybrid fitness for binding NBS DNA for the following variant: QVYT
(A) 0.268

(Q) Give one-hybrid fitness for binding NBS DNA for the following variant: RKGQ
(A) ≤ 0.2

(Q) Give one-hybrid fitness for binding NBS DNA for the following variant: RGKT
(A) 0.24
